molecular target: Neuronal acetylcholine receptor; alpha4/beta2 (Homo sapiens, UniProt P17787+P43681); assay: Agonist activity at human recombinant alpha4beta2 nicotinic acetylcholine receptor expressed in HEK293 cells assessed as changes in intracellular calcium level by FLIPR
Sequence (P17787 whole entry): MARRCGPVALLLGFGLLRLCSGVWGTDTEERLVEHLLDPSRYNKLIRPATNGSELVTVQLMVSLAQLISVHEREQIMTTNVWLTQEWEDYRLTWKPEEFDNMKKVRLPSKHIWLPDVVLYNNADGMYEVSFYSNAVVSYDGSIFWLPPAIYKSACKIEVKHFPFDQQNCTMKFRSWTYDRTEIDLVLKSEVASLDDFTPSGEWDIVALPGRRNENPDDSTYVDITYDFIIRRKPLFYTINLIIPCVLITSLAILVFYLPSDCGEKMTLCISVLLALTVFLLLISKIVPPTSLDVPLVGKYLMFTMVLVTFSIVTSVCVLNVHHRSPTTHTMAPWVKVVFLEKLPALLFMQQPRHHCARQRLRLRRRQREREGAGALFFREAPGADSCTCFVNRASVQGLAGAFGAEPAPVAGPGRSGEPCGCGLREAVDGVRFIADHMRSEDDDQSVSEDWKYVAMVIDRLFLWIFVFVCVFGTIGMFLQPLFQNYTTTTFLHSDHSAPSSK
Sequence (P43681 whole entry): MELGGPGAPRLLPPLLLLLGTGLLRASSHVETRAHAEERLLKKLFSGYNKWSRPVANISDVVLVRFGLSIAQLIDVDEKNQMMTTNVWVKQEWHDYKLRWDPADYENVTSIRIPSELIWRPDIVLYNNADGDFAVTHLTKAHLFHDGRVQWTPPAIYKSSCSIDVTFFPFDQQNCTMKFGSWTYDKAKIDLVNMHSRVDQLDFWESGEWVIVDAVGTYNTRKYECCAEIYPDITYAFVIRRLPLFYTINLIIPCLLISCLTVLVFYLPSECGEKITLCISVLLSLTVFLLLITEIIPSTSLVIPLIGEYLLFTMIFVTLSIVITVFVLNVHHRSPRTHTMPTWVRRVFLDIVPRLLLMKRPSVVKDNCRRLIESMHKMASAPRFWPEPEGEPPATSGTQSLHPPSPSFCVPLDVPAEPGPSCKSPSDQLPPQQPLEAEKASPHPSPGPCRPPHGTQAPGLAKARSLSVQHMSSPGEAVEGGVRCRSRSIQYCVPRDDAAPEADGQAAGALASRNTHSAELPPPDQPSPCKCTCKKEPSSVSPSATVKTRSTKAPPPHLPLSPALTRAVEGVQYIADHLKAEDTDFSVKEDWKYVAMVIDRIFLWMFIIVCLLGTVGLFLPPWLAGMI
pEC50: −log10 of the molar value.
Quick reference for pEC50 among some molecules

Look over these answered cases.
entry_smiles=c1ccc(-c2cncc(N3C[C@H]4CNC[C@H]4C3)c2)cc1 experimental_system="Neuronal acetylcholine receptor; alpha4/beta2 (Homo sapiens, UniProt P17787+P43681)" result="< 4.00"
entry_smiles=CCOc1cncc(N2C[C@H]3CNC[C@H]3C2)c1 experimental_system="Neuronal acetylcholine receptor; alpha4/beta2 (Homo sapiens, UniProt P17787+P43681)" result=6.43
entry_smiles=c1cncc(N2C[C@H]3CNC[C@H]3C2)c1 experimental_system="Neuronal acetylcholine receptor; alpha4/beta2 (Homo sapiens, UniProt P17787+P43681)" result=7.40
entry_smiles=CN1C[C@@H]2CN(c3ccc(-c4ccc5[nH]ccc5c4)nn3)C[C@@H]2C1 experimental_system="Neuronal acetylcholine receptor; alpha4/beta2 (Homo sapiens, UniProt P17787+P43681)" result="< 4.00"
entry_smiles=c1ccc(-c2ccc(N3C[C@H]4CNC[C@H]4C3)nn2)cc1 experimental_system="Neuronal acetylcholine receptor; alpha4/beta2 (Homo sapiens, UniProt P17787+P43681)" result="< 4.00"

Moving on to the next molecule.
Provide one value: measured pEC50 of CN1C[C@@H]2CN(c3ccc(-c4ccccc4)nn3)C[C@@H]2C1
< 4.00

###

The entries below are paired with their reported pEC50.
molecular target: Neuronal acetylcholine receptor subunit alpha-7 (Homo sapiens, UniProt P36544); assay: Agonist activity at human recombinant alpha7 nicotinic acetylcholine receptor expressed in xenopus laevis oocytes by parallel oocyte electrophysiological assay
Sequence (P36544 whole entry): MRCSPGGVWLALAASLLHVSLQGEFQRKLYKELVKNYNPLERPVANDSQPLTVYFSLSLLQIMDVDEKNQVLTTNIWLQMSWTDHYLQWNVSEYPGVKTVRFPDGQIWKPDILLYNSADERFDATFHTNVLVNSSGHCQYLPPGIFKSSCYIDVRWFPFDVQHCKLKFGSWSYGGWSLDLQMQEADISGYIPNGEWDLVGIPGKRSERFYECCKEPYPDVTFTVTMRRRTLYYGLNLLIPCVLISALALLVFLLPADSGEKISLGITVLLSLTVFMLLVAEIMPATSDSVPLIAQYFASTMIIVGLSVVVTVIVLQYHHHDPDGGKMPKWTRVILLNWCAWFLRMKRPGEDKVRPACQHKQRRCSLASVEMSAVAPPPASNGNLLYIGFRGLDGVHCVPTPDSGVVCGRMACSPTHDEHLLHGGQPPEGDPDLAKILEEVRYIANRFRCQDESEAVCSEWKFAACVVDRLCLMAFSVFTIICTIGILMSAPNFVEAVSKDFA
Lab note — pEC50 values are minus log10 of concentrations in M.

Reference set (3 entries):
entry_smiles=CN1C[C@@H]2CN(c3ccc(-c4ccc5[nH]ccc5c4)nn3)C[C@@H]2C1 experimental_system="Neuronal acetylcholine receptor subunit alpha-7 (Homo sapiens, UniProt P36544)" readout_kind=pEC50 recorded_number=6.49
entry_smiles=c1ccc(-c2ccc(N3C[C@H]4CNC[C@H]4C3)nn2)cc1 experimental_system="Neuronal acetylcholine receptor subunit alpha-7 (Homo sapiens, UniProt P36544)" readout_kind=pEC50 recorded_number=5.94
entry_smiles=c1cncc(N2C[C@H]3CNC[C@H]3C2)c1 experimental_system="Neuronal acetylcholine receptor subunit alpha-7 (Homo sapiens, UniProt P36544)" readout_kind=pEC50 recorded_number=5.35

Give Neuronal acetylcholine receptor subunit alpha-7 (Homo sapiens, UniProt P36544) pEC50 for the following compound: CN1C[C@@H]2CN(c3ccc(-c4ccccc4)nn3)C[C@@H]2C1
5.37

###

Overview of reported Ratio Ki across a group of compounds:
species: Rattus norvegicus; test: Selectivity ratio of Ki for alpha7 nicotinic acetylcholine receptor to Ki for alpha4beta2 nicotinic acetylcholine receptor in rat brain minus cerebellum membrane; format: tissue-based

entry_smiles=Cc1ccccc1-c1ccc(N2C[C@H]3CN(C)C[C@H]3C2)nn1 result="> 14"
entry_smiles=c1ncc(N2C[C@H]3CNC[C@H]3C2)cc1N1CCOCC1 result="> 210"
entry_smiles=Cc1ccc(-c2ccc(N3C[C@H]4CN(C)C[C@H]4C3)nn2)cc1 result="> 8600"

Determine its reported Ratio Ki: COc1cccc(-c2ccc(N3C[C@H]4CN(C)C[C@H]4C3)cn2)c1
> 2000
